Tested target: CepR (Burkholderia multivorans, UniProt Q93PF7)
Sequence (Q93PF7 1-239): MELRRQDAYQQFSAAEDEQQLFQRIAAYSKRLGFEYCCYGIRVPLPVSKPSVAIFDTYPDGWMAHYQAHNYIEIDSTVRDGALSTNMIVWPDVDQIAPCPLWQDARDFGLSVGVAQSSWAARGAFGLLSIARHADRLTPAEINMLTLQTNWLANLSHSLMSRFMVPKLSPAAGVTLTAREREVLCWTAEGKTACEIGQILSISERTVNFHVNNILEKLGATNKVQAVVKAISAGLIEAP
Test details: CepR agonism in B. multivorans cepI::lacZ reporter (Bm-reporter)
Assay type: cell-based
Measurement setup: read-out: Maximal Activation (%)
Quantity: Emax (%)
The reply should contain only the number, in %.

Some compounds with recorded Emax:
>  <Compound>
O=C(CCc1ccc([N+](=O)[O-])cc1)N[C@H]1CCOC1=O [Compound E37]

>  <Emax [%]>
91

$$$$
>  <Compound>
O=C(CCc1ccc(C(F)(F)F)cc1)N[C@H]1CCOC1=O [Compound E35]

>  <Emax [%]>
98

$$$$

What value of Emax on CepR (Burkholderia multivorans, UniProt Q93PF7) does O=C(CCc1ccc(I)cc1)N[C@H]1CCOC1=O [Compound E32] have?
110

And CCCCCCCC(=O)N[C@H]1CCOC1=O [Compound C8-AHL, N-octanoyl L-homoserine lactone, reference compound] ?
100

----------
Tested target: UniProt:B4EMD0
Test details: CepR agonism in E. coli β-galactosidase reporter (Ec-reporter) JLD271 [pJN105-cepR + pSC11-cepI]
Assay type: cell-based, B. cenocepacia
Measurement setup: Table S2, Ec-reporter; screening conc. 100 μM
# reported Act%; entries follow
The reply should contain only the number, in %.

Some molecules with recorded Act%:
>  <Molecule>
CSc1ccc(CC(=O)N[C@H]2CCOC2=O)cc1 [Compound E6]

>  <Act% [%]>
3.7

$$$$
>  <Molecule>
COc1cccc(OCC(=O)N[C@H]2CCOC2=O)c1 [Compound E18]

>  <Act% [%]>
30

$$$$
>  <Molecule>
O=C(N[C@H]1CCOC1=O)c1cnn(-c2ccccc2)c1C(F)(F)F [Compound D9]

>  <Act% [%]>
14

$$$$
>  <Molecule>
O=C(Cc1ccc(SC(F)(F)F)cc1)N[C@H]1CCOC1=O [Compound E8]

>  <Act% [%]>
14

$$$$
>  <Molecule>
O=C(Nc1ccccc1NC(=O)c1cccc(Cl)c1)c1cccc(Cl)c1 [TP-5, reference compound]

>  <Act% [%]>
0.4

$$$$

Find the recorded Act% belonging to O=C(CCc1cccc(Br)c1)N[C@H]1CCOC1=O [Compound E31] and report it.
89

And COc1ccc(OCC(=O)N[C@H]2CCOC2=O)cc1 [Compound E17] ?
50

And CCCCCCCCCC(=O)CC(=O)Nc1cccc(OC)c1 [Control 13, reference compound] ?
2.0

And O=C(Cc1cc(C(F)(F)F)cc(C(F)(F)F)c1)N[C@H]1CCOC1=O [Compound E9] ?
2.2

----------
Tested target: CepR (Burkholderia cenocepacia, UniProt B4EMD0)
Sequence (B4EMD0 1-239): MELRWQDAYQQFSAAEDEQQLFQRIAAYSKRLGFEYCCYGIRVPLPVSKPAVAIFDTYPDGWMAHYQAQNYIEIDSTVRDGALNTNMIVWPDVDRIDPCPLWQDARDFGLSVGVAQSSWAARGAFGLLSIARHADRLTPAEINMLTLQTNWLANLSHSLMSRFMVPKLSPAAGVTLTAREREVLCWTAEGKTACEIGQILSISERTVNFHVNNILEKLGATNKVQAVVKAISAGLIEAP
Test details: CepR antagonism in E. coli β-galactosidase reporter (Ec-reporter), competition against C8-AHL
Assay type: cell-based, B. cenocepacia
Measurement setup: Table S3, Ec-reporter; screening conc. 100 μM; against 10 nM C8-AHL
Where Inh% (100-Act%) equals or exceeds -10%, the correct label is class 1; where it does not, the label is class 0.

Decide: is the reported value of Inh% (100-Act%) for O=C(Cc1c[nH]c2ccccc12)N[C@H]1CCOC1=O [Compound B13] equal to or greater than -10%?
class 1

And O=C(N[C@H]1CCOC1=O)c1ccc(I)cc1 [Compound Q5] ?
class 1

And CCCCCCCCCCCC(O)CC(=O)N[C@@H]1CCOC1=O (stereo partly drawn) [3’OH-C14-AHL, reference compound] ?
class 0

And Cc1ccc(CC(=O)N[C@H]2CCOC2=O)cc1 [Compound C19] ?
class 0

And CCCCCCCC(=O)CC(=O)N[C@H]1CCOC1=O [3’O-C10-AHL, reference compound] ?
class 0

And CCCCCCCCCC(=O)CC(=O)N[C@H]1CCOC1=O [3’O-C12-AHL, reference compound] ?
class 0

And O=C(Cc1ccccc1I)N[C@H]1CCOC1=O [Compound C12] ?
class 1
